Consider the following compounds; for each one, report its Flu intensity.
# target: ATP-dependent translocase ABCB1 (Homo sapiens)
# procedure-text: Inhibition of MDR1-mediated efflux-pump activity in mouse L5178Y cells expressing human MDR1 assessed as mean fluorescence intensity at 2 uM preincubated for 10 mins followed by rhodamine-123 addition measured after 20 mins by flow cytometry (reference value: 7.1 to 18.6)
# Type: cell-based
Just the number, please, no unit after it.

Please report the recorded Flu intensity for CC(C)=C[C@H](O)C[C@@H](C)[C@H]1CC[C@@]2(C)[C@@H]3C(=O)C=C4[C@@H](CC[C@H](O)C4(C)C)[C@]3(C)CC[C@]12C .
20.8

Same question for COc1ccc(C(=O)O[C@H]2CC[C@@H]3C(=C[C@H](OC)[C@@H]4[C@@]3(C)CC[C@]3(C)[C@@H]([C@H](C)C[C@H](C=C(C)C)OC(=O)c5ccc(OC)cc5)CC[C@@]43C)C2(C)C)cc1 [KARAVOATE N] please.
6.3

Same question for CO[C@H]1C=C2[C@@H](CC[C@H](OC(=O)CCC(=O)O)C2(C)C)[C@]2(C)CC[C@]3(C)[C@@H]([C@H](C)C[C@H](C=C(C)C)OC(=O)CCC(=O)O)CC[C@@]3(C)[C@H]12 please.
8.2

Same question for CO[C@H]1C=C2[C@@H](CC[C@H](OC(=O)c3ccc([N+](=O)[O-])cc3)C2(C)C)[C@]2(C)CC[C@]3(C)[C@@H]([C@H](C)C[C@H](C=C(C)C)OC(=O)c4ccc([N+](=O)[O-])cc4)CC[C@@]3(C)[C@H]12 [KARAVOATE J] please.
9.5

---

# target: ATP-dependent translocase ABCB1 (Homo sapiens, UniProt P08183)
# Sequence (P08183 whole entry): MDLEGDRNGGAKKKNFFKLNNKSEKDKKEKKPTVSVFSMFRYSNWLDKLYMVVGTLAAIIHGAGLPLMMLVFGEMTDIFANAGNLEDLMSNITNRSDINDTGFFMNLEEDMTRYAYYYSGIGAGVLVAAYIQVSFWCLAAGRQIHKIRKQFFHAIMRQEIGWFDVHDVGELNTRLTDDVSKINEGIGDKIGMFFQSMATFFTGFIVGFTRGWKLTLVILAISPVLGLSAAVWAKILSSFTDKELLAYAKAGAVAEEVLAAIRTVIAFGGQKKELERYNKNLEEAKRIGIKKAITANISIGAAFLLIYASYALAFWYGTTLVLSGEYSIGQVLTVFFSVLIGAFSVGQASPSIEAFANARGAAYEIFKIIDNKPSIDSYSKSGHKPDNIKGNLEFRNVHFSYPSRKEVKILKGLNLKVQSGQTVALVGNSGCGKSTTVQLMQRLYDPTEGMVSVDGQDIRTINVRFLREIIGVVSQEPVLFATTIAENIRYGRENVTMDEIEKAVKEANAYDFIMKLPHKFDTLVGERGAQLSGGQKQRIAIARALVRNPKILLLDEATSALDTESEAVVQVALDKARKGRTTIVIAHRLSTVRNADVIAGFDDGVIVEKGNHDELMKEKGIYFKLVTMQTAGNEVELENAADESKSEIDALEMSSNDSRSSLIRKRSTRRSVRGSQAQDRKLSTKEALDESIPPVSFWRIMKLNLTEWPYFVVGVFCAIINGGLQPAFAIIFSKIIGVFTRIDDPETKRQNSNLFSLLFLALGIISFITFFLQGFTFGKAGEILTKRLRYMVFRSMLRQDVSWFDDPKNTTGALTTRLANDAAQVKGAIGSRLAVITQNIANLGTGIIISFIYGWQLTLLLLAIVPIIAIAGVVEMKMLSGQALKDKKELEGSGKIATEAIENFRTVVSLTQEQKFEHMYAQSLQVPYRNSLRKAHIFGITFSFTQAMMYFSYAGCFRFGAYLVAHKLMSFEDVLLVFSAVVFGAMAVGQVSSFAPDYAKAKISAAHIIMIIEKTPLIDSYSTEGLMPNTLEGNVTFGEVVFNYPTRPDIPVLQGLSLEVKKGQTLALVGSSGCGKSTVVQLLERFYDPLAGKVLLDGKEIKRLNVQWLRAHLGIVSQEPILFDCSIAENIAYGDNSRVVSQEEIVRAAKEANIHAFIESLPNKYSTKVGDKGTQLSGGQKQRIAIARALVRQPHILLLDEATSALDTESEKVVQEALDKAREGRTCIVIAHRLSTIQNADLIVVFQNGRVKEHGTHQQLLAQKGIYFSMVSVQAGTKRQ
# procedure-text: Inhibition of MDR1 in mouse L5178Y cells expressing human MDR1 assessed as doxorubicin-induced antiproliferative activity by measuring combination index at 5.7:1 compound to doxorubicin ratio measured after 48 hrs by MTT assay
# Assay type: cell-based
observed-property: CI
Just the number, please, no unit after it.

Please report the recorded CI for CC(C)=C[C@H](O)C[C@@H](C)[C@H]1CC[C@@]2(C)[C@@H]3C=C[C@@]45OC[C@]3(CC[C@]12C)[C@@H]4CC[C@H](O)C5(C)C .
0.437

Same question for C[C@H](C/C=C/C(C)(C)O)[C@H]1CC[C@@]2(C)[C@@H]3[C@@H](O)C=C4[C@@H](CC[C@H](O)C4(C)C)[C@]3(C)CC[C@]12C please.
0.71

Same question for CC(C)=C[C@H](O)C[C@@H](C)[C@H]1CC[C@@]2(C)[C@@H]3C(=O)C=C4[C@@H](CC[C@H](O)C4(C)C)[C@]3(C)CC[C@]12C please.
0.721

Same question for CO[C@H]1C=C2[C@@H](CC[C@H](O)C2(C)C)[C@]2(C)C[C@@H](O)[C@]3(C)[C@@H]([C@H](C)C[C@@H](O)C=C(C)C)CC[C@@]3(C)[C@H]12 please.
0.416

Same question for CC(C)=CC(=O)C[C@@H](C)[C@H]1CC[C@@]2(C)[C@@H]3C(=O)C=C4[C@@H](CC[C@H](O)[C@]4(C)CO)[C@]3(C)CC[C@]12C please.
0.268

Same question for CO[C@H]1C=C2[C@@H](CC[C@H](O)C2(C)C)[C@]2(C)CC[C@]3(C)[C@@H]([C@H](C)C[C@H](C=C(C)C)O[C@@H]4O[C@H](CO)[C@@H](O)[C@H](O)[C@H]4O)CC[C@@]3(C)[C@H]12 please.
0.956
